I'd be grateful if you could share measured GI50 for these entries.
Test system: OVCAR-5
protocolNotes: NCI tumour cell line growth inhibition, 48 h
Activity calls are given as the source filed them. Rule as the data show it: active = GI50 up to about 1.1 µM and inactive = higher.

Challenge: GET /values?readout=GI50&system=OVCAR-5&item= "COc1cc(C(=O)C/C(CCC(=O)Nc2ccccc2[N+](=O)[O-])=N\NC(N)=O)ccc1O"
Response given: > 100 µM (inactive)

Challenge: GET /values?readout=GI50&system=OVCAR-5&item= CCC1OC2C(CC=C(C)C)=C3OC(C)(O)C(C)(CC)C(=O)C3=C3OC(=O)C=C1C32 (centres undefined)
Response given: 65.3 µM (inactive)

Challenge: GET /values?readout=GI50&system=OVCAR-5&item= CSc1nc2c(nc(N)n2C2OC(COC(C)=O)C(OC(C)=O)C(OC(C)=O)C2OC(C)=O)c(=O)n1C (centres undefined)
Response given: > 100 µM (inactive)

Challenge: GET /values?readout=GI50&system=OVCAR-5&item= CCCCCCCCCCCCCCCCCC(=O)NCC(COP(=O)([O-])OCC[N+](C)(C)C)OC (centres undefined)
Response given: 4.09 µM (inactive)

----------
Test system: UACC-62
protocolNotes: NCI tumour cell line growth inhibition, 48 h
The source made the active and inactive calls. Cut-off read from the data, not from the text of the source: active = GI50 up to about 1.1 µM and inactive = higher. Peptide text beside a SMILES is read from it. * marks the point of attachment. Boc = CC(C)(C)OC(=O)*
Pick one: yes (1) = active, no (0) = inactive

Challenge: What did this assay record as the result for "CC1(C)CC2=NO[Se]3=C2C(=NO3)C1" ?
Response given: no (0)

Challenge: What did this assay record as the result for CSC(CC(=O)O)C(=O)O (stereo unspecified) ?
Response given: no (0)

Challenge: What did this assay record as the result for COC1(OC)N=C(N)C2(C#N)C(C)=C3NCN(C)N=C3C12C#N (stereo unspecified) ?
Response given: no (0)

Challenge: What did this assay record as the result for "COc1ccc2nc3ccccc3c(NCCCN(C)CCCl)c2c1" ?
Response given: yes (1)

Challenge: What did this assay record as the result for COC(=O)C(Cc1c[nH]c2ccccc12)NC(=O)C(Cc1c[nH]c2ccccc12)NC(=O)C(Cc1c[nH]c2ccccc12)NC(=O)C(Cc1c[nH]c2ccccc12)NC(=O)C(Cc1c[nH]c2ccccc12)NC(=O)OC(C)(C)C (stereo unspecified) (Boc-WWWWW-OMe; configuration not given here) ?
Response given: no (0)

Challenge: What did this assay record as the result for COc1cc(/C=C2/C(=O)N(C(=O)OCC(C)C)C(Cc3cc(OC)c(OC)c(C)c3OC)C(=O)N2Cc2ccccc2)c(OC)c(C)c1OC (stereo unspecified) ?
Response given: no (0)

Challenge: What did this assay record as the result for "Cc1nc(O)c(Cc2ccccc2O)c(-c2ccccc2)n1" ?
Response given: no (0)

Challenge: What did this assay record as the result for "C[C@@H]1O[C@@H]2OCC[C@@H]2C2=C1C(=O)c1ccccc1C2=O" ?
Response given: no (0)

Challenge: What did this assay record as the result for "O=C(CCC(=O)Nc1cccc(C(F)(F)F)c1)CC(=O)c1ccc2ccccc2c1" ?
Response given: no (0)

Challenge: What did this assay record as the result for O=[N+]([O-])c1ccc(C2N3CCCCC3[C@@H]3c4[nH]c5ccccc5c4CCN23)cc1 (stereo partly specified) ?
Response given: no (0)

Challenge: What did this assay record as the result for "O=C(/C=C/c1ccc(Cl)c(Cl)c1)Oc1ccc(/C=C2\CCCCC2=O)cc1" ?
Response given: no (0)

----------
Test system: SN12C
protocolNotes: NCI tumour cell line growth inhibition, 48 h
The source made the active and inactive calls. Rule as the data show it: active = GI50 up to about 1.1 µM and inactive = higher.
propertyMeasured: GI50

Challenge: Item under review: [O-][S+](Nc1ccccc1)c1ccc(-c2ccccc2)cc1 (stereo not given) . Reported GI50?
Response given: > 100 µM (inactive)

Challenge: Item under review: COC(=O)NC(Cc1ccccc1)NC(C)=O (stereo not given) . Reported GI50?
Response given: > 100 µM (inactive)

Challenge: Item under review: "Cc1cc(O)cc2c1c(=O)c1ccccc1n2C" . Reported GI50?
Response given: > 100 µM (inactive)

Challenge: Item under review: "COc1c(C(=O)O)oc2c(OC)cccc12" . Reported GI50?
Response given: > 100 µM (inactive)

Challenge: Item under review: "C#CCOC(=O)c1ccc(OC(C)=O)cc1" . Reported GI50?
Response given: > 100 µM (inactive)

Challenge: Item under review: "CCCn1cnc2c(SCc3ccc(Cl)cc3)nc(N)nc21" . Reported GI50?
Response given: 19.7 µM (inactive)

Challenge: Item under review: CC1C(=O)C(C)C(c2ccccc2)N(N=O)C1c1ccccc1 (stereo not given) . Reported GI50?
Response given: 400 µM (inactive)

Challenge: Item under review: COC(=O)CCC(=O)c1ccc2c(c1)CC1(C2)Cc2ccc3c(c2C1)CCCC3=O (stereo not given) . Reported GI50?
Response given: 38.1 µM (inactive)

Challenge: Item under review: "COc1c2ccccc2c(OC)c2nc(C)ccc12" . Reported GI50?
Response given: > 100 µM (inactive)

Challenge: Item under review: NC(CS)C(=O)NCCNc1ccc(NCCNC(=O)C(N)CS)c2c1C(=O)c1c(O)ccc(O)c1C2=O (stereo not given) . Reported GI50?
Response given: 0.00836 µM (active)

Challenge: Item under review: "CCN(C(C)=N)c1ccccc1" . Reported GI50?
Response given: 70 µM (inactive)

Challenge: Item under review: "Cc1ccc(S(=O)(=O)N2CCCSCCSCCCSCC2)cc1" . Reported GI50?
Response given: > 100 µM (inactive)

Challenge: Item under review: "CCOC(=O)c1c[nH]c2cc3c(cc2c1=O)CCS3" . Reported GI50?
Response given: > 100 µM (inactive)

Challenge: Item under review: "c1ccc2c(NCCCCCCNc3c4ccccc4nc4ccccc34)c3ccccc3nc2c1" . Reported GI50?
Response given: 0.137 µM (active)

Challenge: Item under review: Cc1[nH]c2ccccc2c1C1Cc2ccccc2N1C(=O)/C(Cl)=C/c1ccccc1 (stereo not given) . Reported GI50?
Response given: > 100 µM (inactive)

Challenge: Item under review: "COC(=O)c1ccccc1N1C(=O)Cc2ccccc2C1=O" . Reported GI50?
Response given: > 100 µM (inactive)

Challenge: Item under review: CC(=O)CC(O)(C(F)(F)Cl)C(F)(Cl)Cl (stereo not given) . Reported GI50?
Response given: > 10 µM (inactive)

Challenge: Item under review: O=c1n(CC2CO2)c2ccccc2n1CC1CS1 (stereo not given) . Reported GI50?
Response given: > 100 µM (inactive)

Challenge: Item under review: "COC(=O)c1nsc(OC)c1Cl" . Reported GI50?
Response given: > 100 µM (inactive)

Challenge: Item under review: "COc1cc(/C=C/C(=O)c2sc(Nc3ccccc3)nc2C)ccc1O" . Reported GI50?
Response given: 59.6 µM (inactive)

Challenge: Item under review: COC1(OC)c2ccccc2C2(O)c3ccccc3C(=O)C12 (stereo not given) . Reported GI50?
Response given: 60.8 µM (inactive)

Challenge: Item under review: "Cc1cc(N(CCC#N)S(=O)(=O)c2ccccc2)ccc1C=O" . Reported GI50?
Response given: > 100 µM (inactive)

Challenge: Item under review: "Cn1c(-c2ccc(C=O)o2)ccc1-c1ccc(C=O)o1" . Reported GI50?
Response given: 37.6 µM (inactive)

Challenge: Item under review: "COC(=O)CCc1c(Cc2ccc[nH]2)[nH]c(C(=O)OCc2ccccc2)c1C" . Reported GI50?
Response given: 18.1 µM (inactive)

Challenge: Item under review: "CCC(=O)OC[n+]1ccc2c(C)c3[nH]c4ccc(OC)cc4c3c(C)c2c1" . Reported GI50?
Response given: < 0.01 µM (active)

Challenge: Item under review: NC(CCP(=O)(O)O)C(=O)O (stereo not given) . Reported GI50?
Response given: > 100 µM (inactive)

Challenge: Item under review: "CC(=O)OCCOCNC(=S)N/N=C/c1cc(Br)cs1" . Reported GI50?
Response given: > 100 µM (inactive)

Challenge: Item under review: "CC(C)(C)OC(=O)NCC(=O)N1CCN(C(=O)CNC(=O)OC(C)(C)C)CC1" . Reported GI50?
Response given: > 100 µM (inactive)

Challenge: Item under review: "CCOC(=O)n1c2ccccc2c(=O)n1CCO" . Reported GI50?
Response given: > 100 µM (inactive)

Challenge: Item under review: "CCN(CC)/C(Cl)=C(Cl)\C(=C1\Nc2ccc(OC)cc21)[N+](=O)[O-]" . Reported GI50?
Response given: > 100 µM (inactive)

Challenge: Item under review: "O=C(CSC1=NCCN1)Nc1ccccc1" . Reported GI50?
Response given: 17.5 µM (inactive)

Challenge: Item under review: "COc1ccccc1N1CCN(CCCCNC(=O)c2ccc([N+](=O)[O-])o2)CC1" . Reported GI50?
Response given: 3.27 µM (inactive)

Challenge: Item under review: COC1(OC)N=C(N)C2(C#N)C(C)=C3NCN(C)N=C3C12C#N (stereo not given) . Reported GI50?
Response given: > 100 µM (inactive)

Challenge: Item under review: "N#C/C(=C1\SC(C(N)=O)=C(N)N1c1ccccc1)c1nc2ccccc2[nH]1" . Reported GI50?
Response given: > 100 µM (inactive)

Challenge: Item under review: "O=C1C[C@H]2[C@@H](O1)[C@@H](O)CN1C(=O)c3ccccc3[C@H]21" . Reported GI50?
Response given: > 100 µM (inactive)

Reference source for all entries: ChEMBL document CHEMBL1201862
